testDescription: small-molecule binders of probe aLefty1, primary screen, biochemical, small-molecule microarray, 635/667 nm fluorescence (AID 1153);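 also: score merges spot fluorescence with signal-to-noise ratio from the scanned slide images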
protocolConditions: higher = more signal
Label scheme for composite z-score: lower than -0.0003 is label 0, -0.0003 and above is label 1.

A selection of reference data follows.
>>> assignedlabel("O=C1O[C@@H](c2ccccc2)[C@@H](c2ccccc2)N2[C@@H](c3ccccc3OCCO)[C@]3(C(=O)Nc4ccc(C#CCCO)cc43)[C@@H](C(=O)O)[C@H]12")
"label 1"
>>> assignedlabel("CCN1C(=O)[C@H]2[C@H]3[C@H](O)[C@H](O)CC(=NOCC=C(C)CCC=C(C)C)[C@H]3CC[C@H]2C1=O")
"label 0"
>>> assignedlabel("CO[C@@H]1COC(=O)[C@@H]2CCCN2C(=O)[C@@H](C)COC(=O)[C@H](COCc2ccccc2)NC(=O)CC=C[C@H]1C")
"label 0"

Prompt: Exam item: decide whether the reported composite z-score for O=C1O[C@@H](c2ccccc2)[C@@H](c2ccccc2)N2[C@@H](c3ccc(OCCO)cc3)[C@]3(C(=O)Nc4ccc(C#CCCO)cc43)[C@@H](C(=O)N3CCCCCCC3)[C@H]12 is at least -0.0003.
Completion: label 1

Prompt: Exam item: decide whether the reported composite z-score for COC(=O)CC1OC1[C@H](C)[C@@H](OC)C(C)C (some centres not stated) is at least -0.0003.
Completion: label 0

Prompt: Exam item: decide whether the reported composite z-score for CCOC(=O)NN=C1C[C@@H](O)[C@@H](O)[C@@H]2[C@@H]3C(=O)N(C[C@@H]4CCCO4)C(=O)[C@@H]3CC[C@@H]12 is at least -0.0003.
Completion: label 0
